Values from ChEMBL document CHEMBL1156731

Tested on: Candida albicans
Assay: Antifungal activity against Candida albicans ATCC 10231 after 48 hrs by broth macrodilution method
Format: functional
Conditions: ATCC 10231, 48 h
experimental_endpoint: MIC

>>> result("OC(Cn1cncn1)(Cn1cncn1)c1ccc(F)cc1F")
"1 µg/mL"

// `CCOC(=O)c1sc2ccccc2c1Nc1ccc(OC)cc1OC` : MIC value = > 200 µg/mL

// `CCOC(=O)c1sc2ccccc2c1Nc1ccc(F)cc1` : MIC value = > 200 µg/mL

// `CCOC(=O)c1sc2ccccc2c1Nc1ccc(O)cc1` : MIC value = > 200 µg/mL

// `CCOC(=O)c1sc2ccccc2c1Nc1cccnc1` : MIC value = > 200 µg/mL

// `CCOC(=O)c1sc2ccccc2c1Nc1ccc(O)cc1O` : MIC value = 25 µg/mL

// `c1cncc(Nc2csc3ccccc23)c1` : MIC value = 50 µg/mL

// `CCOC(=O)c1sc2ccccc2c1Nc1ccc(OC)cc1` : MIC value = > 200 µg/mL

---

Tested on: Pichia kudriavzevii
Experiment: Antifungal activity against Candida krusei ATCC 6258 after 48 hrs by broth macrodilution method
Type: functional
Conditions: ATCC 6258, 48 h
Each entry below lists one item and its recorded MIC value.

>>> result("CCOC(=O)c1sc2ccccc2c1Nc1ccc(O)cc1O")
"25 µg/mL"

For OC(Cn1cncn1)(Cn1cncn1)c1ccc(F)cc1F [FLUCONAZOLE] on Pichia kudriavzevii, measured MIC was 64 µg/mL

For `c1cncc(Nc2csc3ccccc23)c1` on Pichia kudriavzevii, measured MIC was 100 µg/mL

For `CCOC(=O)c1sc2ccccc2c1Nc1ccc(OC)cc1` on Pichia kudriavzevii, measured MIC was > 200 µg/mL

For `CCOC(=O)c1sc2ccccc2c1Nc1ccc(O)cc1` on Pichia kudriavzevii, measured MIC was > 200 µg/mL

For `CCOC(=O)c1sc2ccccc2c1Nc1ccc(OC)cc1OC` on Pichia kudriavzevii, measured MIC was > 200 µg/mL

For `CCOC(=O)c1sc2ccccc2c1Nc1ccc(F)cc1` on Pichia kudriavzevii, measured MIC was > 200 µg/mL

For `CCOC(=O)c1sc2ccccc2c1Nc1cccnc1` on Pichia kudriavzevii, measured MIC was > 200 µg/mL

---

Tested on: Nannizzia gypsea
Test: Antifungal activity against Microsporum gypseum FF3 after 5 days by broth macrodilution method
Format: functional
Conditions: 120 h
experimental_endpoint: MFC

Some entries whose results are on file:
>>> result("CCOC(=O)c1sc2ccccc2c1Nc1ccc(OC)cc1")
"> 200 µg/mL"
>>> result("OC(Cn1cncn1)(Cn1cncn1)c1ccc(F)cc1F")
"> 128 µg/mL"
>>> result("CCOC(=O)c1sc2ccccc2c1Nc1cccnc1")
"> 50 µg/mL"

// `CCOC(=O)c1sc2ccccc2c1Nc1ccc(OC)cc1OC` : MFC value = > 200 µg/mL

// `CCOC(=O)c1sc2ccccc2c1Nc1ccc(F)cc1` : MFC value = > 200 µg/mL

---

Each entry below lists one item and its recorded MIC value.
Test system: Nannizzia gypsea
Assay: Antifungal activity against Microsporum gypseum FF3 after 5 days by broth macrodilution method
Type: functional
Settings: 120 h

>>> result("CCOC(=O)c1sc2ccccc2c1Nc1ccc(OC)cc1")
"> 200 µg/mL"
>>> result("CCOC(=O)c1sc2ccccc2c1Nc1ccc(F)cc1")
"> 200 µg/mL"
>>> result("CCOC(=O)c1sc2ccccc2c1Nc1ccc(OC)cc1OC")
"> 200 µg/mL"

For OC(Cn1cncn1)(Cn1cncn1)c1ccc(F)cc1F [FLUCONAZOLE] on Nannizzia gypsea, measured MIC was > 128 µg/mL

---

Each entry below lists one item and its recorded MFC value.
System: Nannizzia gypsea
Assay: Antifungal activity against Microsporum gypseum FF3 after 5 days by broth macrodilution method
Format: functional
Details: 120 h
Entry rule: numbers only, all in µg/mL.

>>> result_number("CCOC(=O)c1sc2ccccc2c1Nc1ccc(O)cc1")
12.5

# input for lookup
// `CCOC(=O)c1sc2ccccc2c1Nc1ccc(O)cc1O` : MFC value = 25
